- ASSAYED_SYSTEM: MC1-R (B-16 mouse melanoma cells) (Mus musculus)
- Construct: B-16 mouse melanoma cells (containing MC1-R); endogenous in cells; host or cells: B-16 mouse melanoma cells
- Sequence (Q01727 whole entry): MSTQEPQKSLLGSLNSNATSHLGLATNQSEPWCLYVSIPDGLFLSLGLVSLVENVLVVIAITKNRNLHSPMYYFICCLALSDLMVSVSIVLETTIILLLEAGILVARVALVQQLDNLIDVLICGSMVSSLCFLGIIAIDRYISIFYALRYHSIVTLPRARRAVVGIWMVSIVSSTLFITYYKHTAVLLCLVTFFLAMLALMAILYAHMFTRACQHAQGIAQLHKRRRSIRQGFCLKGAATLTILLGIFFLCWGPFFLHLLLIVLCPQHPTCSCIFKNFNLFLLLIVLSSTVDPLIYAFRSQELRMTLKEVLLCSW
- TEST_SUMMARY: Competitive inhibition binding assay, 125I-NDP-α-MSH, MC1-R
REPORTED_METRIC: inhibition at 1 µM (%)
Respond numerically; units are % and should not be typed.

query: Which inhibition at 1 µM value is on record for [2H]N[C@@H](Cc1cnc[nH]1)C(=O)N[C@@H](Cc1ccccc1)C(=O)N1CC2C[C@H](Oc3ccc4ccccc4c3)CN2C(=O)[C@@H]1CCCCN (stereo partly shown) [Example 179] ?
result: 0

query: Which inhibition at 1 µM value is on record for [2H]N[C@@H](Cc1ccccc1)C(=O)N1C[C@H](OCc2ccccc2)C[C@H]1C(=O)NCCCN [Example 137] ?
result: 23

query: Which inhibition at 1 µM value is on record for N=C(N)NCCC[C@H]1C(=O)N(CCc2ccc3ccccc3c2)CCN1C(=O)COc1ccc(Cl)cc1Cl [Example 77] ?
result: 15

query: Which inhibition at 1 µM value is on record for [2H]N[C@@H](Cc1cnc[nH]1)C(=O)N[C@@H](Cc1ccccc1)C(=O)N1C2CC[C@H](COc3ccc4ccccc4c3)N2C(=O)[C@@H]1CCCCN (stereo partly shown) [Example 111] ?
result: 94

query: Which inhibition at 1 µM value is on record for N=C(N)NCCCC1C(=O)N(CCc2c[nH]c3ccccc23)CCN1C(=O)C(Cc1ccc(Cl)cc1)NC(=O)C(COCc1ccccc1)NC(=O)CCCCCCN (stereo not shown) [Example 17] ?
result: 96

query: Which inhibition at 1 µM value is on record for N=C(N)NCCCC1C(=O)N(CCc2c[nH]c3ccccc23)CCN1C(=O)C(Cc1ccc(Cl)cc1)NC(=O)C1Cc2ccccc2CN1 (stereo not shown) [Example 14] ?
result: 96

query: Which inhibition at 1 µM value is on record for NC(COCc1ccccc1)C(=O)NC(Cc1ccc(Cl)cc1Cl)C(=O)N1CCN(CCc2ccc3ccccc3c2)C(=O)C1CCCNC1=NCCN1 (stereo not shown) [Example 48] ?
result: 63

----------
- ASSAYED_SYSTEM: MC4-R (Homo sapiens, UniProt P32245)
- Sequence (P32245 whole entry): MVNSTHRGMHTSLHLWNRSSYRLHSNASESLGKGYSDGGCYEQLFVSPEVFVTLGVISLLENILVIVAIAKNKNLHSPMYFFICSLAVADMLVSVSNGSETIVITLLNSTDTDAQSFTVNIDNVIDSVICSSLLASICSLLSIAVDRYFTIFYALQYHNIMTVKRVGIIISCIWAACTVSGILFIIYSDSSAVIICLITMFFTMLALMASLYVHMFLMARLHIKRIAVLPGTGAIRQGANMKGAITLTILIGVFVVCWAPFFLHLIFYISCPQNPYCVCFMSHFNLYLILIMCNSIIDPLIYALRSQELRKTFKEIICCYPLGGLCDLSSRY
- TEST_SUMMARY: Competitive inhibition binding assay, 125I-NDP-α-MSH, MC4-R
- Design: expressed in transfected cells
- RUN_CONDITIONS: 1 μM compound; inhibition of 125I-NDP-α-MSH binding; mean of triplicates; results less than 0% reported as 0%
Inhibition at 1 μM MC4-R vs 20%: at or above is rule met, below is rule not met.

query: Is Inhibition at 1 μM MC4-R at least 20%? Consider NCCCC[C@H]1C(=O)N(CCc2ccccc2)CCN1C(=O)[C@@H](Cc1ccc(Cl)cc1)NC(=O)[C@@H](N)COCc1ccccc1 [Example 12]
result: rule met

query: Is Inhibition at 1 μM MC4-R at least 20%? Consider NCCCC[C@H]1C(=O)N(CCc2ccccc2)CCN1C(=O)[C@@H](Cc1ccc(Cl)cc1)NC(=O)[C@@H]1Cc2ccccc2CN1 [Example 13]
result: rule met

query: Is Inhibition at 1 μM MC4-R at least 20%? Consider NCCCNC(=O)[C@@H]1C[C@@H](OCc2ccccc2)CN1C(=O)[C@@H](Cc1ccccc1)NC(=O)[C@H](N)C1Cc2ccccc2C1 [Example 175]
result: rule not met

query: Is Inhibition at 1 μM MC4-R at least 20%? Consider NCCCCC1C(=O)N2C(COc3ccccc3)CCC2N1C(=O)C(N)Cc1ccc(Cl)cc1 (stereo not drawn) [Example 103]
result: rule not met

query: Is Inhibition at 1 μM MC4-R at least 20%? Consider [2H]NC(Cc1cnc[nH]1)C(=O)NC(Cc1ccccc1)C(=O)N1C(CCCNC(=N)N)C(=O)N2C(COc3ccc4ccccc4c3)CCC21 (stereo not drawn) [Example 97]
result: rule met

query: Is Inhibition at 1 μM MC4-R at least 20%? Consider NCCCC[C@H]1C(=O)N2C(CC[C@@H]2COc2ccc3ccccc3c2)N1C(=O)[C@@H](Cc1ccccc1Cl)NC(=O)[C@@H](N)C1Cc2ccccc2C1 (stereo partly drawn) [Example 90]
result: rule not met

query: Is Inhibition at 1 μM MC4-R at least 20%? Consider NCCCC[C@H]1C(=O)N(CCc2ccc3ccccc3c2)CCN1C(=O)[C@@H](Cc1ccc(Cl)cc1Cl)NC(=O)c1ccc(Oc2ccccc2)cc1 [Example 37]
result: rule met

query: Is Inhibition at 1 μM MC4-R at least 20%? Consider NC(=O)NCC[C@H]1C(=O)N(CCc2ccc3ccccc3c2)CCN1C(=O)[C@H](N)Cc1ccc(Cl)cc1Cl [Example 57]
result: rule not met

query: Is Inhibition at 1 μM MC4-R at least 20%? Consider C[C@@H](OCc1ccccc1)[C@H](N)C(=O)N[C@H](Cc1ccc(Cl)cc1Cl)C(=O)N1CCN(CCc2ccc3ccccc3c2)C(=O)[C@@H]1CCCCN [Example 24]
result: rule met

query: Is Inhibition at 1 μM MC4-R at least 20%? Consider NCCCC[C@H]1C(=O)N2C(CC[C@@H]2COc2ccc3ccccc3c2)N1C(=O)[C@@H](Cc1ccccc1Cl)NC(=O)[C@@H]1NCCc2ccccc21 (stereo partly drawn) [Example 88]
result: rule met

query: Is Inhibition at 1 μM MC4-R at least 20%? Consider NCCCC[C@H]1C(=O)N2C(CC[C@@H]2COc2ccc3c(c2)CCCC3)N1C(=O)[C@@H](Cc1ccc(Cl)cc1)NC(=O)[C@@H]1Cc2ccccc2CN1 (stereo partly drawn) [Example 108]
result: rule met

query: Is Inhibition at 1 μM MC4-R at least 20%? Consider NCCCNC(=O)C1CC(OCc2ccccc2)CN1C(=O)C(Cc1ccccc1)NC(=O)C1CCC(=O)N1C(=O)OCc1ccccc1 (stereo not drawn) [Example 177]
result: rule not met

query: Is Inhibition at 1 μM MC4-R at least 20%? Consider CCNC(=N)NCCC[C@H]1C(=O)N(CCc2ccc3ccccc3c2)CCN1C(=O)[C@H](N)Cc1ccc(Cl)cc1Cl [Example 73]
result: rule met

query: Is Inhibition at 1 μM MC4-R at least 20%? Consider NCCCNC(=O)[C@@H]1C[C@@H](OCc2ccccc2)CN1C(=O)[C@@H](Cc1ccccc1)NC(=O)[C@@H]1Cc2ccccc2N1 [Example 172]
result: rule not met

query: Is Inhibition at 1 μM MC4-R at least 20%? Consider NCCCC[C@H]1C(=O)N2C(CC[C@@H]2COc2ccc3ccccc3c2)N1C(=O)[C@@H](Cc1ccccc1Cl)NC(=O)C1(N)CCc2ccccc2C1 (stereo partly drawn) [Example 89]
result: rule met

query: Is Inhibition at 1 μM MC4-R at least 20%? Consider NCCCC[C@H]1C(=O)N2C(CC[C@@H]2COc2ccc3c(c2)CCCC3)N1C(=O)[C@@H](Cc1ccc(Cl)cc1)NC(=O)[C@@H](N)COCc1ccccc1 (stereo partly drawn) [Example 109]
result: rule met

query: Is Inhibition at 1 μM MC4-R at least 20%? Consider NCCCNC(=O)[C@@H]1C[C@@H](OCc2ccccc2)CN1C(=O)[C@@H](Cc1ccccc1)NC(=O)C1(N)CCCC1 [Example 161]
result: rule not met

query: Is Inhibition at 1 μM MC4-R at least 20%? Consider NCCCNC(=O)[C@@H]1C[C@@H](OCc2ccccc2)CN1C(=O)[C@@H](Cc1ccccc1)NC(=O)[C@@H](N)C1Cc2ccccc2C1 [Example 174]
result: rule not met

query: Is Inhibition at 1 μM MC4-R at least 20%? Consider NCCCC[C@H]1C(=O)N(CCc2ccc3ccccc3c2)CCN1C(=O)[C@@H](Cc1ccc(Cl)cc1Cl)NC(=O)[C@@H](N)COCc1ccccc1 [Example 22]
result: rule met

query: Is Inhibition at 1 μM MC4-R at least 20%? Consider NC(=O)NCCC[C@H]1C(=O)N(CCc2ccc3ccccc3c2)CCN1C(=O)[C@@H](Cc1ccc(Cl)cc1Cl)NC(=O)[C@@H](N)COCc1ccccc1 [Example 44]
result: rule met

query: Is Inhibition at 1 μM MC4-R at least 20%? Consider NCCCC[C@H]1C(=O)N(CCc2ccc3ccccc3c2)CCN1C(=O)[C@@H](Cc1ccc(Cl)cc1Cl)NC(=O)C/C=C/c1ccccc1 [Example 33]
result: rule met

query: Is Inhibition at 1 μM MC4-R at least 20%? Consider N[C@H](Cc1ccc(Cl)cc1Cl)C(=O)N1CCN(CCc2ccc3ccccc3c2)C(=O)[C@@H]1CCCCNC=O [Example 64]
result: rule met

query: Is Inhibition at 1 μM MC4-R at least 20%? Consider CC(=O)NCCCC[C@H]1C(=O)N(CCc2ccc3ccccc3c2)CCN1C(=O)[C@H](N)Cc1ccc(Cl)cc1Cl [Example 65]
result: rule met

query: Is Inhibition at 1 μM MC4-R at least 20%? Consider N=C(N)NCCC[C@H]1C(=O)N(CCc2ccc3ccccc3c2)CCN1C(=O)[C@@H](Cc1ccc(Cl)cc1Cl)NC(=O)[C@@H](N)COCc1ccccc1 [Example 53]
result: rule met

The measured values listed here are drawn from patent US7807678B2.
